METHOD_SUMMARY: A549 cell viability effects, profiling panel, calcein-AM fluorescence, 48 h, basal (AID 1162); note: test concentration not given here
EXPERIMENTAL_PARAMETERS: higher = more signal
PARAMETER: z-score
Give bare numbers.

Task item: // lookup z-score for "COCCOC(=O)N1C(=O)[C@@]2(c3cc(C#CCNC(N)=O)ccc31)[C@H](C(=O)Nc1nc3ccccc3s1)[C@H]1C(=O)O[C@H](c3ccccc3)[C@H](c3ccccc3)N1[C@@H]2c1ccc(O)cc1"
Reply: -0.277

Please state z-score for every molecule in the list that follows.
1. COC(=O)[C@@]1(Cc2ccc(F)cc2)[C@H]2c3cc(C(=O)N(C)C)n(Cc4cccc5ccccc45)c3C[C@H]2CN1C(=O)c1ccccc1
2. COC(=O)[C@@]1(Cc2ccc(OC)cc2)[C@H]2c3cc(C(=O)N(C)C)n(Cc4c(CO)[nH]cc(C)c4=O)c3C[C@H]2CN1C(=O)c1ccccc1
3. CC(C)(C)OC(=O)CC[C@@]1(C(=O)N2CCOCC2)N=C(c2ccc(OCCCO)cc2)O[C@@H]1c1ccccc1CN=[N+]=[N-]
4. O=C1OCC=C[C@H]2OC34C=CCN(Cn5nnc6ccccc65)C(=O)[C@H]3N(CCO)C(=O)[C@@H]4[C@@H]12 (some centres not stated)
5. C=CCC(OC(C)=O)[C@@H]1[C@@H](N(Cc2ccc(-c3ccccc3)cc2)C(=O)Cc2ccc(OC)cc2)c2cc(OCCCO)ccc2N1C(=O)Cc1ccc(OC)cc1 (some centres not stated)
6. O=C1OC[C@@H](c2ccccc2)n2cc(/C=C/c3ccccc3)cc21
7. CC1CC/C=C\[C@H]2OC34C=CCN(CCN5CCOCC5)C(=O)[C@H]3N(C(CO)C(C)C)C(=O)[C@@H]4C2C(=O)O1 (some centres not stated)
8. [N-]=[N+]=Nc1ccccc1C[C@]1(C(=O)N2CCCCC2)N=C(c2ccc(OCCCO)cc2)O[C@H]1c1ccccc1

Reply:
-0.994
-1.38
-0.688
0.0757
0.0816
-0.235
0.0685
-0.786
